# Measurement Target: human neuronal constitutive NOS (hncNOS) (Homo sapiens, UniProt P29475)
# Sequence (P29475 whole entry): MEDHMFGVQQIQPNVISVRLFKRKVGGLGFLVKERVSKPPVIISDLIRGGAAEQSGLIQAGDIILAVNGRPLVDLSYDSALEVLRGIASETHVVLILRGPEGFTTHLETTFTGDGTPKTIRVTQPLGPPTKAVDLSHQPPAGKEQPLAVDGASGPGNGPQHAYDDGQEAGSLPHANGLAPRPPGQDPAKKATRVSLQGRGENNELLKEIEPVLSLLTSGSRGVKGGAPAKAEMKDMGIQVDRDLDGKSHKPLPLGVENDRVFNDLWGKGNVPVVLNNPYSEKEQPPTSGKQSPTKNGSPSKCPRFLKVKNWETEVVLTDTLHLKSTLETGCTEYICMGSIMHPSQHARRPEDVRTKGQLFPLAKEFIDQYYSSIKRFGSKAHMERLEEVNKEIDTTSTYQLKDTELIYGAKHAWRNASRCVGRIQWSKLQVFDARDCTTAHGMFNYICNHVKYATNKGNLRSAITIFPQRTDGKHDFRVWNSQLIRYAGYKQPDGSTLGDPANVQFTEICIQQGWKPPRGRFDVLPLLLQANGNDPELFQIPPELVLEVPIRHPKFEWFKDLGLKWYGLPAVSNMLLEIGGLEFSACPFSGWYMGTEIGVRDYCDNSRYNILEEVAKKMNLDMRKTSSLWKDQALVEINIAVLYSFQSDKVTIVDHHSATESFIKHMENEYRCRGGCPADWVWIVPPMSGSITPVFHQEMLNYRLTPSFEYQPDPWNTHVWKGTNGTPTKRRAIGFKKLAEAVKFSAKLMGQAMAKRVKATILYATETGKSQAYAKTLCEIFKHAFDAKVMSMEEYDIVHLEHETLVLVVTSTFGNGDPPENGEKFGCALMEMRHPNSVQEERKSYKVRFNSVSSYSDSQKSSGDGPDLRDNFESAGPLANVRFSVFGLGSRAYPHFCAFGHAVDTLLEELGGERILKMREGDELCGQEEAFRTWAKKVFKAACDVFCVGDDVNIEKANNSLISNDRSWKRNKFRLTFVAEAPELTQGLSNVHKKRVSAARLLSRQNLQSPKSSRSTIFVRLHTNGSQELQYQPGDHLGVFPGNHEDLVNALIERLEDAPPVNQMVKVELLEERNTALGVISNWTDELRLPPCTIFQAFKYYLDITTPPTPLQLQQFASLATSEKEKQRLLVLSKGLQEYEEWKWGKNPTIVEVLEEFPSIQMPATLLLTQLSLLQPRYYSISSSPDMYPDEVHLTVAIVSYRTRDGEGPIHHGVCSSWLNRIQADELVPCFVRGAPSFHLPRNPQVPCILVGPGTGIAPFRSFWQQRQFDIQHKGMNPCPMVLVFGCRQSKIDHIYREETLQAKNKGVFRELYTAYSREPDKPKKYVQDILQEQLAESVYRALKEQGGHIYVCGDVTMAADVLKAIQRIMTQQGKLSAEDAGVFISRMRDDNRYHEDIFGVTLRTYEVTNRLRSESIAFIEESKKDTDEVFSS
# Protocol Text: Citrulline assay for nitric oxide synthase (hncNOS)
# Condition Notes: recombinant enzyme from Sf9 cells; 30 μM L-arginine; calmodulin 40-100 nM; 37° C., 15 minutes
Counter-ions that a name gives are not always drawn.
Property: IC50 (µM)
API: value field is a number in µM; no unit string.

Measured IC50, CC(=N)NCC/C=C\CC(C)(N)C(=O)O (racemic) [Example 1, Dihydrochloride] : 122
